- measurementDescription: qHTS Assay for Inhibitors of Hepatitis C Virus (HCV)
- assayContext: Huh7.5.1 HCVcc-Cre infection, luciferase reporter, 44 h; series mostly up to 41.8 µM
In all, about 340,000 compounds went through this assay and about 12,000 (3.5%) were called active. About 18% were inconclusive and are not listed. The call rests on the fitted dose curve; in most records, active means well fitted inhibition curve with a large enough effect; inconclusive means small, poorly fitted or top-dose-only effect, or another doubt; inactive means no such curve, though single readings can be large or run the other way. The sample holds actives, similar compounds and a random draw of the others, so the mix is not that of the screen.
Possible outcomes: active, inactive

>>> print(df.to_string())
                                   compound     class
0  CN(C(=O)CSc1nnc(C2CC2)n1C)C1CCCc2ccccc21 (stereo not given)  inactive
1  N#C/C(=C\c1ccc(-c2cccc([N+](=O)[O-])c2)o1)C(=O)NCCN1CCOCC1    active
2  O=C(O)c1ccccc1/C=N/Nc1ccc(S(=O)(=O)Nc2ccc(Cl)cc2)cc1[N+](=O)[O-]  inactive
3  CC1CCCCC1NC(=O)COc1ccc(C#N)cc1 (stereo not given)  inactive
4  Cc1cccc(Cn2c(N3CCN(c4ccccc4)CC3)nc3c2c(=O)n(C)c(=O)n3C)c1    active
5  Cn1c(=O)c2c(nc(CN3CCOCC3)n2Cc2ccccc2)n(C)c1=O  inactive
6  Cc1ccc(Cn2c(C)c3cnn(CC(=O)NCCN4CCOCC4)c(=O)c3c2C)cc1  inactive
7  O=C(CSc1nnc(N2CCOCC2)n1-c1cccc(F)c1)N1CCN(c2ccccn2)CC1  inactive
8  CN(C)CCNC(=O)/C(=C/c1cccc([N+](=O)[O-])c1)NC(=O)c1ccccc1  inactive
9  C=CCNC(=O)/C(=C\c1cccc([N+](=O)[O-])c1)NC(=O)c1ccccc1  inactive

* * *

- measurementDescription: qHTS Assay for Inhibitors of Hepatitis C Virus (HCV)
- assayContext: Huh7.5.1 HCVcc-Cre infection, luciferase reporter, 44 h; series mostly up to 41.8 µM
About 12,000 (3.5%) of roughly 340,000 compounds were called active. Not shown: some 18% with an inconclusive outcome. Calls follow the shape of the dose curve; as a rule, active = well fitted inhibition curve with a large enough effect; inconclusive = small, poorly fitted or top-dose-only effect, or another doubt; inactive = no such curve, though single readings can be large or run the other way. Shown is part of a subset that was picked to be rich in actives.
Possible outcomes: true = active, false = inactive

>>> print(df.to_string())
                                    compound  class
 0             CN(C)CCOCCOc1ccc(Cl)c2ccccc12   true
 1  Cc1ccc2nc(-c3ccccn3)cc(C(=O)Nc3ccc4c(c3)OCO4)c2c1  false
 2  Cc1cc(OCCCC(=O)NCCN2C(=O)S/C(=C\c3cccnc3)C2=O)ccc1Cl   true
 3                        COc1ccc2oc(N)nc2c1  false
 4  COc1ccc(/C=C/C2=CC(C)(C)NC(=S)N2)c(OC)c1   true
 5  O=C(c1cc(-c2ccc(F)cc2)on1)N1CCN(c2ccc(F)cc2)CC1  false
 6  CCOc1ccc(N2CC(C(=O)NCCN3C(=O)S/C(=C\c4cccnc4)C3=O)CC2=O)cc1 (centres undefined)  false
 7  O=C(c1cc(-c2ccc(Cl)cc2)on1)N1CCN(c2ccccc2)CC1  false
 8                 COc1ccccc1OCc1nc2ccccc2s1  false
 9  O=C(Nn1c(-c2ccccc2)nc2ccccc2c1=O)c1ccc([N+](=O)[O-])cc1  false
10  Cc1ccc2nc(-c3ccncc3)cc(C(=O)Nc3ccncc3)c2c1  false
11  Cc1cccc(NC(=O)N2CC3CC(C2)c2cccc(=O)n2C3)c1 (centres undefined)  false
12                 CCOC(=O)N(Cc1ccccc1)C1CC1  false
13  N=C1C(c2nc3ccccc3[nH]2)=C(O)CN1NC(=O)c1c[nH]c2ccccc12  false
14  O=C(NCCN1C(=O)S/C(=C\c2cccnc2)C1=O)c1cccc(OC(F)F)c1  false
15  COc1cc(/C=C/C2=CC(C)(C)NC(=S)N2)cc(OC)c1OC  false
16  CCOc1ccc(-n2c(SCC(=O)Nc3ccc(OC)cc3)nc3sc4c(c3c2=O)CCN(C)C4)cc1   true
17              CN(C)CCOC1c2ccccc2-c2ccccc21  false
18  C[C@@H]1C[C@@H]2O[C@H]2/C=C\C=C\C(=O)Cc2c(Cl)c(O)cc(O)c2C(=O)O1   true
19  COc1ccc(/C=C2/C(=O)N(c3ccccc3)N=C2C)c(OC)c1  false
20  COc1cccc(OC)c1C(=O)NC(=S)N1C[C@H]2C[C@H](C1)c1cccc(=O)n1C2  false
21         O=C(NC(=O)c1ccccc1)NC(=O)c1ccccc1  false
22  COCCCNC(=O)CC1C[C@H](C(=O)N2CCCCC2)[C@@]2(CCc3ccccc3)c3[nH]c4ccccc4c3CCN2C1=O (some centres undefined)  false
23  CCSc1nc2sc3c(c2c(=O)n1-c1ccc(C)cc1)CCN(C)C3  false
24  CCOC(=O)[C@H]1[C@H]2COc3cc(OC)ccc3[C@@H]2N2C(=O)CN(Cc3ccc(Cl)cc3)C(=O)[C@@]12C  false
25  CCCSc1nc2sc3c(c2c(=O)n1-c1ccc(OC)cc1)CCN(C)C3   true
26  COc1ccc(-c2nnc(SC(C)C(=O)NC3CC3)o2)cc1 (centres undefined)  false
27  O=C(c1cccc(C(=O)N2CCN(c3ccc(F)cc3)CC2)c1)N1CCN(c2ccc(F)cc2)CC1   true
28  CS(=O)(=O)N(CC(=O)N1CCc2ccccc2C1)c1ccc(Br)cc1  false
29  Cc1ccc(CN(C)CC(=O)Nc2cccc([N+](=O)[O-])c2)o1  false
30       O=C(NC1=CC(=O)c2ccccc2C1=O)c1ccccc1   true
31  O=C(Cc1ccc([N+](=O)[O-])cc1)NCCc1ccc2c(c1)OCO2  false
32   CC(=O)Oc1ccc(-c2nc3c(C)cccc3c(=O)o2)cc1  false
33  Cc1ccc(S(=O)(=O)N2CCOCC2)cc1NC(=O)COC(=O)c1cnccn1  false
34                     O=C1NCCn2nc3ccccc3c21  false
35   CCOC(=O)CCCN1CC(O)=C(c2nc3ccccc3s2)C1=N  false
36  CCOC(=O)[C@@H]1[C@H]2COc3ccc(Br)cc3[C@H]2N2C(=O)N(c3ccc(C)cc3)C(=O)[C@@]12C  false
37  CC1CN(Cc2ccccc2)C(=S)NC1=O (centres undefined)  false
38  O=C1C=C(NS(=O)(=O)c2ccccc2)C(=O)c2ccccc21  false
39               Cc1nc(N=C(N)N)nc2c(C)cccc12   true
40                Fc1ccc2cnc(-c3ccccc3)cc2c1  false
41  COc1ccc(-c2cc(C(=O)N3CCN(c4ccc(F)cc4)CC3)no2)cc1   true
42    Cc1cccc(OCC(=O)OCC(=O)Nc2ccc(Cl)cn2)c1  false
43  CSCCC(NC(=O)COc1ccccc1)C(=O)OCc1ccc(Cl)cc1 (centres undefined)  false

* * *

- measurementDescription: qHTS Assay for Inhibitors of Hepatitis C Virus (HCV)
- assayContext: Huh7.5.1 HCVcc-Cre infection, luciferase reporter, 44 h; series mostly up to 41.8 µM
- Description: Hepatitis C virus (HCV) infects about 200 million people in the world. Many infected people progress to chronic liver disease including cirrhosis with a risk of developing liver cancer. To date, there is no effective vaccine for hepatitis C. Current therapy based on interferon is only effective in about half of the patients and is associated with significant adverse effects. The fraction of people with HCV who can complete a successful treatment is estimated to be no more than 10 percent. […]
The campaign covered roughly 340,000 compounds. About 12,000 (3.5%) were called active. Roughly 18% stayed inconclusive and do not appear here. The call rests on the fitted dose curve; in most records, active means well fitted inhibition curve with a large enough effect; inconclusive means small, poorly fitted or top-dose-only effect, or another doubt; inactive means no such curve, though single readings can be large or run the other way. For the sample, actives were picked, then their nearest neighbours and some compounds at random.
Possible outcomes: active, inactive

                                    compound     class
 0  Cc1cc(NC(=O)CSCC(=O)NC(C)c2ccccc2)no1 (stereo unspecified)  inactive
 1  COC(=O)[C@]1(C)N[C@H](c2ccc(-c3ccc(Cl)c(Cl)c3)cc2)[C@@H]2C(=O)N(C)C(=O)[C@@H]21  inactive
 2              O=C1c2ccccc2C(=O)C1c1ccccc1F  inactive
 3  CCCCN(C(=O)C(CCSC)N1C(=O)c2ccccc2C1=O)c1c(N)n(CCC)c(=O)[nH]c1=O (stereo unspecified)  inactive
 4  COc1ccc(OC)c(C2C3=C(N=c4s/c(=C\c5cccc(O)c5)c(=O)n42)c2ccccc2CC3)c1 (stereo unspecified)    active
 5  O=C(COC(=O)Cc1c[nH]c2ccccc12)NCCc1ccccc1  inactive
 6  CCOC(=O)C1=C(C)N=C2c3ccccc3C(=O)C2C1c1ccc(Br)cc1 (stereo unspecified)  inactive
 7  CN(CC(=O)Nc1ccc(F)c(F)c1F)C(=O)C1CC(=O)N(C2CCCC2)C1 (stereo unspecified)  inactive
 8                  c1csc(-c2cn3c(n2)SCC3)c1  inactive
 9                 O=C(NN1CCOCC1)c1cccc(F)c1  inactive
10  O=C(CSc1nc2ccccc2c(=O)n1-c1ccccc1F)N1CCOCC1  inactive

# credit: PubChem BioAssay AID651820
